B1: Death-associated inhibitor of apoptosis 2 (Drosophila melanogaster (Fruit fly)), Q24307 (parent)
chain: MTELGMELESVRLATFGEWPLNAPVSAEDLVANGFFATGNWLEAECHFCHVRIDRWEYGDQVAERHRRSSPICSMVLAPNHCGNVPRSQESDNEGNSVVDSPESCSCPDLLLEANRLVTFKDWPNPNITPQALAKAGFYYLNRLDHVKCVWCNGVIAKWEKNDNAFEEHKRFFPQCPRVQMGPLIEFATGKNLDELGIQPTTLPLRPKYACVDARLRTFTDWPISNIQPASALAQAGLYYQKIGDQVRCFHCNIGLRSWQKEDEPWFEHAKWSPKCQFVLLAKGPAYVSEVLATTAANASSQPATAPAPTLQADVLMDEAPAKEALALGIDGGVVRNAIQRKLLSSGCAFSTLDELLHDIFDDAGAGAALEVREPPEPSAPFIEPCQATTSKAASVPIPVADSIPAKPQAAEAVANISKITDEIQKMSVATPNGNLSLEEENRQLKDARLCKVCLDEEVGVVFLPCGHLATCNQCAPSVANCPMCRADIKGFVRTFLS
partner: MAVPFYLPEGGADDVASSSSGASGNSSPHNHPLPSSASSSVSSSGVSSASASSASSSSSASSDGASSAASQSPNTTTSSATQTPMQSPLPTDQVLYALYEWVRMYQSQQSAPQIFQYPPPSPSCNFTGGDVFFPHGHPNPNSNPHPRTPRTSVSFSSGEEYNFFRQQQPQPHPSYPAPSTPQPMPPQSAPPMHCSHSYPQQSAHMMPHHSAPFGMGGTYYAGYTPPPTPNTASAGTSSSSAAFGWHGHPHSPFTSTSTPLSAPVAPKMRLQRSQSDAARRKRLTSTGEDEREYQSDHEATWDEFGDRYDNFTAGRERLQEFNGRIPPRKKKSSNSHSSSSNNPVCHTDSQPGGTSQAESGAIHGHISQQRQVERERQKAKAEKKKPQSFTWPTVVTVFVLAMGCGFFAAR

- Variants of: B1
- particulars: with hid_drome hid

| variantDescription | effect of a mutation on the interaction |
| --- | --- |
| C249G | with no effect |
| C46G | with no effect |
| C149G | with no effect |
